Measured values drawn from patent US20240343803A1 for this set.

Please provide measured Fold change vs chimeric antibodies (KD) for the entries that follow.
Target: T1, Fusion protein of extracellular domain of human TIGIT and His-tag (human TIGIT ECD-his) (human)
T1 chain: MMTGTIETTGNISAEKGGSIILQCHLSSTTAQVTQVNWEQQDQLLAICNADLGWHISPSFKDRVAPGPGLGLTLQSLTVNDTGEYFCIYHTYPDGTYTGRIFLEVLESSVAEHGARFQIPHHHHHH
Test: BIAcore; KD ratio to TIGIT-CHI-006
Please give the number followed by its unit.

In the examples that follow, each entry is paired with its recorded Fold change vs chimeric antibodies (KD).
TIGIT-006-H3L3 (antibody, V domains shown, Humanized anti-TIGIT antibody) VH: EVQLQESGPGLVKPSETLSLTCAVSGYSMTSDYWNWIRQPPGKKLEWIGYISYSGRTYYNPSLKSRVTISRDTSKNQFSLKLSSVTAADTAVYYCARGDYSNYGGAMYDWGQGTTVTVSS VL: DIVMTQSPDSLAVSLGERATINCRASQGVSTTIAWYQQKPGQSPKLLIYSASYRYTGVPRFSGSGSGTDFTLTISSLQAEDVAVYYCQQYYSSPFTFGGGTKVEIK :: 6.23 fold
TIGIT-006-H5L3 (antibody, V domains shown, Humanized anti-TIGIT antibody) VH: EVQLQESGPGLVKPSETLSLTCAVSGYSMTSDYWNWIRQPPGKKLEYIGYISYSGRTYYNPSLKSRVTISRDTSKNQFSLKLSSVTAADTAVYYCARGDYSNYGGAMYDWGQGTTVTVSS VL: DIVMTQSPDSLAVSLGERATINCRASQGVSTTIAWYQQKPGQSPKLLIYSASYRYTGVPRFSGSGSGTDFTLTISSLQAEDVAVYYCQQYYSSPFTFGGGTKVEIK :: 0.83 fold

The record that follows has no Fold change vs chimeric antibodies (KD) shown yet.
Record TIGIT-006-H2L1 (antibody, V domains shown, Humanized anti-TIGIT antibody) VH: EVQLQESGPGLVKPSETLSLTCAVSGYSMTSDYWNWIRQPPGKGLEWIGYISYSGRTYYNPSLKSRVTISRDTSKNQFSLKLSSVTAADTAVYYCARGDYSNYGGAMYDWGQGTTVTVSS VL: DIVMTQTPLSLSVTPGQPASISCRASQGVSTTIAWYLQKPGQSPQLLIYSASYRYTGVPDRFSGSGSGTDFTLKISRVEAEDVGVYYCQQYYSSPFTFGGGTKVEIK , field Fold change vs chimeric antibodies (KD): 12.3 fold
